Measured ∆G, standard free energy change of binding by item
Molecular target: human serum albumin (HSA) (Homo sapiens)
Construct: I (residues 1–195), II (196–383), and III (384–585); purchased Sigma
Test: Fluorescence quenching titration of HSA (Stern–Volmer analysis)
Format: binding
Conditions: ΔG = −2.303 RT logK
Procedure: The samples of HSA were prepared in 20 mM phosphate buffer (pH 7.4), whereas silver complexes (1 mM) stock solution were prepared in DMSO and further diluted in 20 mM phosphate buffer to reach the desired concentration. […] The concentration of HSA was determined using the Beer–Lambert law with the molar extinction coefficient of 36500 M^−1·cm^−1 at 280 nm. […] UV absorption spectra, from 240 nm to 320 nm, were recorded on a Perkin–Elmer Lambda 45 spectrophotometer at 25°C. […]
Use kJ/mol as the unit, but write only the number.

>>> test_value("O=[N+]([O-])[O-].[Ag+] [AgNO3, reference compound]")
-35.88
>>> test_value("F[B-](F)(F)F.[Ag+].c1ccc2c(c1)[nH]c1cnccc12.c1ccc2c(c1)[nH]c1cnccc12 [Compound 4, [Ag(Hnor)2](BF4)]")
-34.55
>>> test_value("O=[N+]([O-])[O-].[Ag+].c1ccc2c(c1)[nH]c1cnccc12.c1ccc2c(c1)[nH]c1cnccc12 [Compound 2, [Ag(Hnor)2](NO3)]")
-37.44
>>> test_value("CC#N.F[P-](F)(F)(F)(F)F.[Ag+].c1ccc2c(c1)[nH]c1cnccc12.c1ccc2c(c1)[nH]c1cnccc12 [Compound 3, [Ag(Hnor)2(MeCN)](PF6)]")
-32.73

Reported ∆G, standard free energy change of binding of c1ccc2c(c1)[nH]c1cnccc12 [Hnor, 9H-pyrido[3,4-b]indole, reference compound] : -31.40

Reported ∆G, standard free energy change of binding of [Ag+].[O-][Cl+3]([O-])([O-])[O-].c1ccc2c(c1)[nH]c1cnccc12.c1ccc2c(c1)[nH]c1cnccc12 [Compound 1, [Ag(Hnor)2](ClO4)] : -37.50

---

Measured % α-helix of HSA by item
biological target: human serum albumin (HSA) (Homo sapiens, UniProt P02768); construct: I (residues 1–195), II (196–383), and III (384–585); purchased Sigma; assay: Far-UV circular dichroism of HSA, α-helix content; type: binding; parameters: unit of the concentration uncertain; settings: compound concentration 60 (unit uncertain); HSA 20 µM; free HSA 67.03
Sequence (P02768 25-609): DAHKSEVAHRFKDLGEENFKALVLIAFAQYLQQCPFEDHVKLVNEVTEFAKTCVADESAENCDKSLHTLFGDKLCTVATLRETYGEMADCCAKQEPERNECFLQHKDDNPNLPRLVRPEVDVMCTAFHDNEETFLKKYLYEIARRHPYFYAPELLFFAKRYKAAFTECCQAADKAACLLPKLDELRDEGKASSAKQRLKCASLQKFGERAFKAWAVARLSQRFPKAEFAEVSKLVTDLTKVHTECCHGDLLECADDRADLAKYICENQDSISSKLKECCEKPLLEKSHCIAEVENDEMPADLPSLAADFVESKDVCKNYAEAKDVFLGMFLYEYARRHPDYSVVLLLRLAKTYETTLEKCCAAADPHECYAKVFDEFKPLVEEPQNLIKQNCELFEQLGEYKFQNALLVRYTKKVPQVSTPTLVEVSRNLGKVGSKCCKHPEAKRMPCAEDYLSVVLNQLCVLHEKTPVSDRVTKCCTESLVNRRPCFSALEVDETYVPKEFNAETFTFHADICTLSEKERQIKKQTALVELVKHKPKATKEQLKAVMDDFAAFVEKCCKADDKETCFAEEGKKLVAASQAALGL
Use % as the unit, but write only the number.

>>> test_value("F[B-](F)(F)F.[Ag+].c1ccc2c(c1)[nH]c1cnccc12.c1ccc2c(c1)[nH]c1cnccc12 [Compound 4, [Ag(Hnor)2](BF4)]")
61.53
>>> test_value("CC#N.F[P-](F)(F)(F)(F)F.[Ag+].c1ccc2c(c1)[nH]c1cnccc12.c1ccc2c(c1)[nH]c1cnccc12 [Compound 3, [Ag(Hnor)2(MeCN)](PF6)]")
60.37
>>> test_value("[Ag+].[O-][Cl+3]([O-])([O-])[O-].c1ccc2c(c1)[nH]c1cnccc12.c1ccc2c(c1)[nH]c1cnccc12 [Compound 1, [Ag(Hnor)2](ClO4)]")
58.59

Now for a further compound.
Reported % α-helix of HSA of O=[N+]([O-])[O-].[Ag+].c1ccc2c(c1)[nH]c1cnccc12.c1ccc2c(c1)[nH]c1cnccc12 [Compound 2, [Ag(Hnor)2](NO3)] : 58.41

---

molecular target: human serum albumin (HSA) (Homo sapiens); construct: I (residues 1–195), II (196–383), and III (384–585); purchased Sigma; test: Fluorescence quenching of HSA with addition of extra anions (KClO4, KNO3); format: binding; details: Set B: +extra NO3− (KNO3, 1:4 ratio); HSA 5 µM
Measured K, binding constant by item

# example entries with known answers
>>> test_value("CC#N.F[P-](F)(F)(F)(F)F.[Ag+].c1ccc2c(c1)[nH]c1cnccc12.c1ccc2c(c1)[nH]c1cnccc12 [Compound 3, [Ag(Hnor)2(MeCN)](PF6)]")
"0.08 10^10 M^−1"
>>> test_value("O=[N+]([O-])[O-].[Ag+].c1ccc2c(c1)[nH]c1cnccc12.c1ccc2c(c1)[nH]c1cnccc12 [Compound 2, [Ag(Hnor)2](NO3)]")
"0.66 10^10 M^−1"
>>> test_value("F[B-](F)(F)F.[Ag+].c1ccc2c(c1)[nH]c1cnccc12.c1ccc2c(c1)[nH]c1cnccc12 [Compound 4, [Ag(Hnor)2](BF4)]")
"0.38 10^10 M^−1"

Reported K, binding constant of [Ag+].[O-][Cl+3]([O-])([O-])[O-].c1ccc2c(c1)[nH]c1cnccc12.c1ccc2c(c1)[nH]c1cnccc12 [Compound 1, [Ag(Hnor)2](ClO4)] : 3.64 10^10 M^−1

---

Measured K SV, Stern–Volmer quenching constant by item
biological target: human serum albumin (HSA) (Homo sapiens, UniProt P02768); construct: I (residues 1–195), II (196–383), and III (384–585); purchased Sigma; assay: Fluorescence quenching titration of HSA (Stern–Volmer analysis); assay type: binding; settings: HSA 5 µM, 20 mM phosphate buffer pH 7.4, 25°C, excitation 295 nm

>>> test_value("O=[N+]([O-])[O-].[Ag+].c1ccc2c(c1)[nH]c1cnccc12.c1ccc2c(c1)[nH]c1cnccc12 [Compound 2, [Ag(Hnor)2](NO3)]")
"5.34 10^5 M^−1"
>>> test_value("F[B-](F)(F)F.[Ag+].c1ccc2c(c1)[nH]c1cnccc12.c1ccc2c(c1)[nH]c1cnccc12 [Compound 4, [Ag(Hnor)2](BF4)]")
"3.97 10^5 M^−1"

The reported K SV, Stern–Volmer quenching constant value, human serum albumin (HSA) (Homo sapiens, UniProt P02768), for c1ccc2c(c1)[nH]c1cnccc12 [Hnor, 9H-pyrido[3,4-b]indole, reference compound] reads 2.95 10^5 M^−1

---

biological target: human serum albumin (HSA) (Homo sapiens, UniProt P02768); construct: I (residues 1–195), II (196–383), and III (384–585); purchased Sigma; assay: Far-UV circular dichroism of HSA, α-helix content; format: binding; parameters: unit of the concentration uncertain; conditions: compound concentration 80 (unit uncertain); HSA 20 µM; free HSA 67.03
Value type: % α-helix of HSA (%)
Use % as the unit, but write only the number.

Reported % α-helix of HSA of CC#N.F[P-](F)(F)(F)(F)F.[Ag+].c1ccc2c(c1)[nH]c1cnccc12.c1ccc2c(c1)[nH]c1cnccc12 [Compound 3, [Ag(Hnor)2(MeCN)](PF6)] : 56.31

---

target: human serum albumin (HSA) (Homo sapiens); construct: I (residues 1–195), II (196–383), and III (384–585); purchased Sigma; experiment: Fluorescence quenching of HSA with addition of extra anions (KClO4, KNO3); type: binding; settings: Set B: +extra NO3− (KNO3, 1:4 ratio); HSA 5 µM
Value type: K SV

# example entries with known answers
>>> test_value("O=[N+]([O-])[O-].[Ag+].c1ccc2c(c1)[nH]c1cnccc12.c1ccc2c(c1)[nH]c1cnccc12 [Compound 2, [Ag(Hnor)2](NO3)]")
"1.24 10^7 M^−1"
>>> test_value("CC#N.F[P-](F)(F)(F)(F)F.[Ag+].c1ccc2c(c1)[nH]c1cnccc12.c1ccc2c(c1)[nH]c1cnccc12 [Compound 3, [Ag(Hnor)2(MeCN)](PF6)]")
"0.80 10^7 M^−1"
>>> test_value("[Ag+].[O-][Cl+3]([O-])([O-])[O-].c1ccc2c(c1)[nH]c1cnccc12.c1ccc2c(c1)[nH]c1cnccc12 [Compound 1, [Ag(Hnor)2](ClO4)]")
"2.06 10^7 M^−1"

The reported K SV value, human serum albumin (HSA) (Homo sapiens), for F[B-](F)(F)F.[Ag+].c1ccc2c(c1)[nH]c1cnccc12.c1ccc2c(c1)[nH]c1cnccc12 [Compound 4, [Ag(Hnor)2](BF4)] reads 1.38 10^7 M^−1

---

target: human serum albumin (HSA) (Homo sapiens); construct: I (residues 1–195), II (196–383), and III (384–585); purchased Sigma; test: Fluorescence quenching titration of HSA (Stern–Volmer analysis); type: binding; settings: modified Stern–Volmer equation; HSA 5 µM, pH 7.4, 25°C
Value type: n, number of binding sites

The reported n, number of binding sites value, human serum albumin (HSA) (Homo sapiens), for [Ag+].[O-][Cl+3]([O-])([O-])[O-].c1ccc2c(c1)[nH]c1cnccc12.c1ccc2c(c1)[nH]c1cnccc12 [Compound 1, [Ag(Hnor)2](ClO4)] reads 1.1

The reported n, number of binding sites value, human serum albumin (HSA) (Homo sapiens), for O=[N+]([O-])[O-].[Ag+] [AgNO3, reference compound] reads 1.1

The reported n, number of binding sites value, human serum albumin (HSA) (Homo sapiens), for c1ccc2c(c1)[nH]c1cnccc12 [Hnor, 9H-pyrido[3,4-b]indole, reference compound] reads 1.0

The reported n, number of binding sites value, human serum albumin (HSA) (Homo sapiens), for O=[N+]([O-])[O-].[Ag+].c1ccc2c(c1)[nH]c1cnccc12.c1ccc2c(c1)[nH]c1cnccc12 [Compound 2, [Ag(Hnor)2](NO3)] reads 1.0

The reported n, number of binding sites value, human serum albumin (HSA) (Homo sapiens), for CC#N.F[P-](F)(F)(F)(F)F.[Ag+].c1ccc2c(c1)[nH]c1cnccc12.c1ccc2c(c1)[nH]c1cnccc12 [Compound 3, [Ag(Hnor)2(MeCN)](PF6)] reads 1.2

The reported n, number of binding sites value, human serum albumin (HSA) (Homo sapiens), for F[B-](F)(F)F.[Ag+].c1ccc2c(c1)[nH]c1cnccc12.c1ccc2c(c1)[nH]c1cnccc12 [Compound 4, [Ag(Hnor)2](BF4)] reads 1.1
